Parameter: OD (370 nm). Scope: all listed entries.
# tested.system: T1, stabilized human C3bBb complex comprising the Bb subunit of the FB protein of SEQ ID NO: 2 (single mutant), … (human, UniProt P01024 23-667; P00751 260-764; P01024 749-1663, limits assumed, biotinylated with EZ-Link HPDP-Biotin (Cys))
# T1 construct: also called C3bBb (D279G)
# T1 sequence (P01024 23-667 limits assumed, stated change not applied, chain 1 of 3): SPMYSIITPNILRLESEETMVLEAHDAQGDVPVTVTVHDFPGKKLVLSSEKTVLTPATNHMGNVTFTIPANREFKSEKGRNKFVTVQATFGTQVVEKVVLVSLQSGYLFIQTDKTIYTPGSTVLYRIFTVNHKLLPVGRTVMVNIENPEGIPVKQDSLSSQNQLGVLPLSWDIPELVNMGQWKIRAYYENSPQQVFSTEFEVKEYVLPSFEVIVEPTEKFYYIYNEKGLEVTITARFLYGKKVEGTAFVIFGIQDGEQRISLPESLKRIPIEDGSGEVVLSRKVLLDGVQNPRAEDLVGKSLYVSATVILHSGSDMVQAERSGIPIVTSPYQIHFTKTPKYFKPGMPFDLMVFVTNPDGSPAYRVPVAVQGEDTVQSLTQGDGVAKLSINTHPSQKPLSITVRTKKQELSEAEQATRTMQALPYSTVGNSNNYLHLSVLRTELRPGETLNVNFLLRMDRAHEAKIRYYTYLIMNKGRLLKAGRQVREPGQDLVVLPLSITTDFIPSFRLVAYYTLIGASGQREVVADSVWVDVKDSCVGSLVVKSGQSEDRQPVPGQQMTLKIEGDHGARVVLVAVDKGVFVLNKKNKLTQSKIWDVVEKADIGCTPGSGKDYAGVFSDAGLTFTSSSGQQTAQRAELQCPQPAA
# T1 sequence (P00751 other isoform, or with tags, fused parts or gaps mutant limits assumed, chain 2 of 3): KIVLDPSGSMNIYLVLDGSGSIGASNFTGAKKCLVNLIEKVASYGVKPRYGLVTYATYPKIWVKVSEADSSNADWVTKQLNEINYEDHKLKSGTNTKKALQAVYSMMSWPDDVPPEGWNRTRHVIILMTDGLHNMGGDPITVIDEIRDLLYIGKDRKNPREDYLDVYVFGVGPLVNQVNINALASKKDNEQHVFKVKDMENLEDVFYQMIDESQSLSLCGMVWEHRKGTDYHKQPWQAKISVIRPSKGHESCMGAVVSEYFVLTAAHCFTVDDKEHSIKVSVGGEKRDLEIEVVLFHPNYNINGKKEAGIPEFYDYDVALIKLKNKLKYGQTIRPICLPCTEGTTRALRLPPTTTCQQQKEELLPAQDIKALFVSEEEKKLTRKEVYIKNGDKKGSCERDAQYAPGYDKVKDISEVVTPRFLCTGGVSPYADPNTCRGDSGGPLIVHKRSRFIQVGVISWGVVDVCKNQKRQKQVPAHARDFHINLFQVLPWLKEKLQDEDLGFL
# T1 sequence (P01024 749-1663 limits assumed, stated change not applied, chain 3 of 3): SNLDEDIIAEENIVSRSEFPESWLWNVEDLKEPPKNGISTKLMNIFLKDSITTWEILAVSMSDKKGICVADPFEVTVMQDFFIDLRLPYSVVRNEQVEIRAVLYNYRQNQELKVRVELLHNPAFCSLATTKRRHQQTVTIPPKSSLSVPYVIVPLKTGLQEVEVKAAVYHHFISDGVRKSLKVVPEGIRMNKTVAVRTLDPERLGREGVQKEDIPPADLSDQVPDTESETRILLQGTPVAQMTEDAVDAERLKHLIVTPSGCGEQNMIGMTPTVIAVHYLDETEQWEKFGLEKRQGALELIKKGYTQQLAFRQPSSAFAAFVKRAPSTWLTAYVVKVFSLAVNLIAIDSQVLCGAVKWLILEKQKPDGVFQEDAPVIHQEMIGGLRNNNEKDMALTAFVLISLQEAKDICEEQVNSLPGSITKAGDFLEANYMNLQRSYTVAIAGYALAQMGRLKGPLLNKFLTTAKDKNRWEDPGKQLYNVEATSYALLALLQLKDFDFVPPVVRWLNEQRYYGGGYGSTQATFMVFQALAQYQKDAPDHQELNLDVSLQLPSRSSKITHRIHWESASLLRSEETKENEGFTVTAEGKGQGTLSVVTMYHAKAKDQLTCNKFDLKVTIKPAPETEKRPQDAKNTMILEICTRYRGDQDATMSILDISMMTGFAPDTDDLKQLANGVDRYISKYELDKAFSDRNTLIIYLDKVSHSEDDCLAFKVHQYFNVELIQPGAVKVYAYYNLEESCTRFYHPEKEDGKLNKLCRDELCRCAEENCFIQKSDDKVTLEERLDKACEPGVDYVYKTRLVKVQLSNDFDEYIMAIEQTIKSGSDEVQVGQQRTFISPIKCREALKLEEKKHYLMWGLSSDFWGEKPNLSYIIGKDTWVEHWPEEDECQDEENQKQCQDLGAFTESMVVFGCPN
# test.summary: ELISA, biotinylated C3bBb on streptavidin plate, Fab supernatant, anti kappa/anti T7 HRP
# Protocol: Method: 20 μl of a mixture of 500 ng/ml stabilized human C3bBb-Cys-HPDP-Biotin (inhouse preparation), 1:3000 mouse anti human kappa HRP (Southern Biotech 9230-05) and 1:2000 Mouse IgG anti T7 Tag HRP (Novagen 69048-3) was added to a Microcoat Streptavidine coated 384 well Microplate (Microcoat 11974998001). […] After a 5 Minute incubation at room temperature the optical density (OD) was measured at 370 nm using an En Vision Multimode Plate Reader (Perkin Elmer).
Note: unit OD is implicit; provide only the numeric part.

Previously resolved entries follow.
binder	OD (370 nm), OD
C3bBb.P048.127 (Fab, V domains shown, Tested as soluble Fab in E. coli supernatant with a T7 tag at the C-terminus of the Fab CH1 domain; detected with anti human kappa) VH: GQLVESGGGLVKPGGSLRLSCKASGFYWGPGAMSWVRQAPGKGLEWVGSISPKGGSTEYNTKVYGRFTISRDNNQDTLYLQMNSLRAEDTAVYYCARDIGFFDTWGQGTLVTVSS VL: HQMTQSPSSLSASVGDRVTITCDGEWDISNYLAWYQQKPGKAPKLLIFDAKYRAPEVPSRFSGSGSGRDFTLTISSLQPEDFATYYCQQYNRMYFTFGQGTKVEIK	2.42
C3bBb.P048.241 (Fab, V domains shown, Tested as soluble Fab in E. coli supernatant with a T7 tag at the C-terminus of the Fab CH1 domain; detected with anti human kappa) VH: GQLVESGGGLVKPGGSLRLSCKASGFYWGPGAMSWVRQAPGKGLEWVGSISPKGGSAWYNNNFTGRFTISRDNNQDTLYLQMNSLRAEDTAVYYCARDIGFFDTWGQGTLVTVSS VL: INQMTQSPSSLSASVGDRVTITCQAKWVISNYLAWYQQKPGKAPKLLIFDAKYRAPEVPSRFSGSGSDGTFTLTISSLQPEDFATYYCQQYDWWPYTFGQGTKVEIK	2.57
C3bBb.P048.061 (Fab, V domains shown, Tested as soluble Fab in E. coli supernatant with a T7 tag at the C-terminus of the Fab CH1 domain; detected with anti human kappa) VH: GQLVESGGGLVKPGGSLRLSCKASGFYWGPGAMSWVRQAPGKGLEWVGSISPKGGSTDINPKIGGRFTISRDNNQDTLYLQMNSLRAEDTAVYYCARDIGFFDTWGQGTLVTVSS VL: AIQMTQSPSSLSASVGDRVTITCQGSWLISNYLAWYQQKPGKAPKLLIFDAKYRAPEVPSRFSGSGSGTDFTLTISSLQPEDFATYYCQQYGGRLLTFGQGTKVEIK	0.004

Any idea what its OD (370 nm) is? The binder is C3bBb.P045.072 (Fab, V domains shown, Tested as soluble Fab in E. coli supernatant with a T7 tag at the C-terminus of the Fab CH1 domain; detected with anti human kappa) VH: KLQLVESGGGLVKPGGSLRLSCAASGRRFGVQDMSWVRQAPGKGLEWVGSISPKGDHKYLNTKFIGRFTISRDNSKNTLYLQMNSLRAEDTAVYYCARDWGYFDQWGQGTLVTVSS VL: AIQMTQSPSSLSASVGDRVTITCHGSYWLSSEVAWYQQKPGKAPKLLIYDGNGIIGNVPSRFSGSGSHEDYTLTISSLQPEDFATYYCQQYRYHPYTFGHGTKVEIK 0.023

Would you mind telling me what OD (370 nm) value was observed for C3bBb.P055.015 (Fab, V domains shown, Tested as soluble Fab in E. coli supernatant with a T7 tag at the C-terminus of the Fab CH1 domain; detected with anti human kappa) VH: GQLVESGGGLVKPGGSLRLSCKASGFYWGPGAMSWVRQAPGKGLEWVGSISPKGGSAEYASKVYGRFTISRDNNQDTLYLQMNSLRAEDTAVYYCARDIGFFDTWGQGTLVTVSS VL: DYQMTQSPSSLSASVGDRVTITCEAHSQISNYLAWYQQKPGKAPKLLIFDAKYRAPEVPSRFSGSGSGPDFTLTISSLQPEDFATYYCQQYNDFWLTFGQGTKVEIK ? 0.86

Data provenance is patent US20260193372A1.
